- system_name: T1, human LTBP3-proTGFβ1 complex (human, UniProt Q9NS15 44-1303; P01137 30-390, limits assumed)
- T1 construct: Exemplary entries; also called Hu LTBP3-proTGFβ1; huLTBP3 proTGFb1
- test_method_notes: Octet BLI, IgG captured
pKd: −log10 of the molar value.
experimental_endpoint: pKd

binder | experimental_endpoint | reported_measurement
SR-AB41 (antibody, IgG1, V domains shown, Cycle 3, lineage SR-AB23) VH: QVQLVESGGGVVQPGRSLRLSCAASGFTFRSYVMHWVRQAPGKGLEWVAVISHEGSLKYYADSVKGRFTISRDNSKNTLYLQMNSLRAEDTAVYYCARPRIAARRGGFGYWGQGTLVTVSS VL: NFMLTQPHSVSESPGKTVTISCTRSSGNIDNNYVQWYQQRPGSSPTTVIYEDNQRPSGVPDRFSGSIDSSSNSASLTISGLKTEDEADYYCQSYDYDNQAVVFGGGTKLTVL | pKd | 9.63
SR-AB62 (antibody, IgG1, V domains shown, Cycle 3, lineage SR-AB24) VH: QLQLQESGPGLAKPSETLSLTCTVSGGSIRSSSYYWGWIRQPPGKGLEWIGSISYSATTYYNPSLKSRVTISVDTSKNQFSLKLSSVTAADTAVYYCASDPSYDSAAGMDVWGQGTTVTVSS VL: DIQMTQSPSSLSASVGDRVTITCRASKVISSYLNWYQQKPGKAPKLLIYYASSLQSGVPSRFSGSGSGTDFTLTISSLQPEDFATYYCQQSNDWPFTFGGGTKVEIK | pKd | 9.43
SR-AB40 (antibody, IgG1, V domains shown, Cycle 3, lineage SR-AB23) VH: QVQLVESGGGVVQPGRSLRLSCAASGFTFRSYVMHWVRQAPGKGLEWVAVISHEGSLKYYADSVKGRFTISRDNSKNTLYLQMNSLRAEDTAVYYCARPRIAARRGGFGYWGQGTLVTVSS VL: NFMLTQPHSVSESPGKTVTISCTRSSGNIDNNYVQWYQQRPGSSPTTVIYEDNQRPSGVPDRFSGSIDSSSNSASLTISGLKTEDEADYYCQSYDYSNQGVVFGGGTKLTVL | pKd | 9.48
